Taken from patent US20230141177A1.

Reported koff values for the following binders.
molecular target: T1, cyclo (CGHHQKG) (SEQ ID NO: 2)-BSA (cyclized peptide, cyclo(CGHHQKG); conjugated to BSA); assay: SPR multi-cycle kinetics, purified IgG4 vs cyclic peptide-BSA
T1 construct: also called cyclic peptide-BSA; cyclo-BSA peptide
T1 sequence (P02769 25-607 limits assumed): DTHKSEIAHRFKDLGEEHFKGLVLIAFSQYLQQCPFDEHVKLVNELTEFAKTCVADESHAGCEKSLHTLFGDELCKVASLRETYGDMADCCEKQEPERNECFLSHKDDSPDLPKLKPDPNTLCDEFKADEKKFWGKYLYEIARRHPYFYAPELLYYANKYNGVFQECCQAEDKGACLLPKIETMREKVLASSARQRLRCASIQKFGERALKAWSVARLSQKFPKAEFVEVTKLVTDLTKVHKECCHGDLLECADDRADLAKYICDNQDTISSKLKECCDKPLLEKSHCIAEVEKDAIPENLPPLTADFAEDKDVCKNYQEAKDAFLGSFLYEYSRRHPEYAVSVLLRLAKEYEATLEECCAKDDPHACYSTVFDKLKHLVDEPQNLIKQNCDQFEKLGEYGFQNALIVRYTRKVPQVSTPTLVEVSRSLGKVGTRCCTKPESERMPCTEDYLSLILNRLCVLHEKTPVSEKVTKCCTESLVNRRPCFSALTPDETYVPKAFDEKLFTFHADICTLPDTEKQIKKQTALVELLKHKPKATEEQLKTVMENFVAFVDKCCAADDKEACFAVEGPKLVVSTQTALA
attribute-measured: koff (s⁻¹)

>>> measurement("Clone 5 (affinity matured VH with parental Vk, human IgG4 S241P / kappa) (antibody, V domains shown) VH: QVQLVQSGAEVKKPGASVKMSCKASGYSFTSYWINWVKQRPGQGLEWIGDVHPGRGVSTYNAKFKSRATLTLDTSISTAYMELSSLRSEDTAVYYCARGALSPYWFFDVWGQGTTVTVSS VL: DVLMTQSPLSLPVTLGQPASISCRSSQSIVHSNGNTYLEWYQQRPGQSPRLLIYKVSNRFSGVPDRFSGSGSGTDFTLKISRVEAEDVGVYYCFQGSHVPFTFGQGTKLEIKR")
0.000132
>>> measurement("Clone 14 (affinity matured VH with parental Vk, human IgG4 S241P / kappa) (antibody, V domains shown) VH: QVQLVQSGAEVKKPGASVKMSCKASGYSFTSYWINWVKQRPGQGLEWIGDVHPGRGVSTYNAKFKSRATLTLDTSISTAYMELSSLRSEDTAVYYCAKSDASGYWFFDVWGQGTTVTVSS VL: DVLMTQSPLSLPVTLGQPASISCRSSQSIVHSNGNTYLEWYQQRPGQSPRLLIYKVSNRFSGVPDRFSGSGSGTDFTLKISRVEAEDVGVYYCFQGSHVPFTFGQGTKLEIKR")
0.000152
>>> measurement("Clone 4 (affinity matured VH with parental Vk, human IgG4 S241P / kappa) (antibody, V domains shown) VH: QVQLVQSGAEVKKPGASVKMSCKASGYSFTSYWINWVKQRPGQGLEWIGDVHPGRGVSTYNAKFKSRATLTLDTSISTAYMELSSLRSEDTAVYYCARVSPTGYWFFDVWGQGTTVTVSS VL: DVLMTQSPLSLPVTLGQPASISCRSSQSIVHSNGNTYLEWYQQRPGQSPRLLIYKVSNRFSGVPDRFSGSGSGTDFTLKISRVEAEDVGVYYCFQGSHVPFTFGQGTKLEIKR")
"6.9e-05"
>>> measurement("parental antibody, PMN310 humanized antibody variant VH2/Vk5 (human IgG4 S241P / kappa) (antibody, V domains shown, also called parental huPMN310; huPMN310) VH: QVQLVQSGAEVKKPGASVKMSCKASGYSFTSYWINWVKQRPGQGLEWIGDVHPGRGVSTYNAKFKSRATLTLDTSISTAYMELSSLRSEDTAVYYCSRSHGNTYWFFDVWGQGTTVTVSS VL: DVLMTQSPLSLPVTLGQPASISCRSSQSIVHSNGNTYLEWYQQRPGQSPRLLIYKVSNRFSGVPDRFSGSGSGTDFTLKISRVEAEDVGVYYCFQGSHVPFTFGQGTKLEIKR")
0.000155
